Target: T1, extracellular domain of cyno ILT3 (cynoILT3-ECD) (cynomolgus monkey)
T1 chain: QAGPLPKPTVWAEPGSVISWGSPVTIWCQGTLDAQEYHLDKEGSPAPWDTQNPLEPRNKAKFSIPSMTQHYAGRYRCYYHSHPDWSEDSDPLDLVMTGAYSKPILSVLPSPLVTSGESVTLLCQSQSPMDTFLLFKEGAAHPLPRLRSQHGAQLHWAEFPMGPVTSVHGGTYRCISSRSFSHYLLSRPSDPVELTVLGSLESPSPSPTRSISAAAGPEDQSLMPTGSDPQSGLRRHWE
Experiment: SPR (Biacore), antibody captured via anti-Fc on CM5 chip, soluble ILT3-ECD injected
Property: koff; scope: individual binders
property-measured: koff (s⁻¹)

binder="Hz48A6 C2/C2 (antibody, V domains shown) VH: EVQLVESGGGLMQPGGSLRLSCAASGFTFSSYGMSWVRQAPGKGLEWVATISSGGTYTFYPDSVKGRFTISRDNSKNTLYLQMNSLRAEDTAVYYCARRGWLLHYYAMDYWGQGTLVTVSS VL: DIQLTQSPSFLSASVGDRVTITCRPSESVDSFGNSFMHWFQQKPGKAPKLLIYLSSKLESGVPSRFSGSGSGTEFTLTISSLQPEDFATYYCQQHNEDPFTFGQGTKVEIK" property_measured=koff unit_annotation=s⁻¹ meas_value=0.082
binder="45G10 chimera (antibody, V domains shown, also called parental chimeric 45G10) VH: EVQLVESGGGLVKPGGSLKLSCAASGFTFSDYGMHWVRQAPEKGLEWVAYIFSGSSTIYYADTVKGRFTISRDNAKNTLFLQMTSLRSEDTAMYYCARADGRGAMDYWGQGTSVTVSS VL: DVQMTQTTSSLSASLGDRVTISCRASQDISKFLNWYQQKPDGTVTLLIYYTSRLHSGVPSRFSGSGSGTDYSLTISNLDQEDIATYFCQQGNTLPWTFGGGTKLEIK" property_measured=koff unit_annotation=s⁻¹ meas_value=0.015
